Would you mind telling me the reported clearance of each entry?
# RUN_DESCRIPTION: Determination of pharmacokinetic properties in the mouse (cassette dosing)
# Format: in vivo
# EXPERIMENTAL_CONDITIONS: female, SJL/N Tac, plasma, iv, i.v. administration, nominal dose 1 mg/kg/compound
Return type: number; implicit unit mL/min/kg.

`CCC(=O)Nc1ccc(NCc2ccccc2C(F)(F)F)cc1C(=O)O` yielded clearance of 1.17

`CCC(=O)Nc1ccc(COc2ccccc2C(F)(F)F)cc1C(=O)O` yielded clearance of 2.33

CC(=O)Nc1ccc(CCc2ccccc2)cc1C(=O)O [Compound AF, 2-Acetylamino-5-phenethyl-benzoic acid, reference compound] yielded clearance of 16.2
